- System: serum lipids and serum lipid hydroperoxide
- EXPERIMENT: Pharmacological test method A for anti-hyperlipidemic activity (serum lipids, 2 weeks feeding)
- Type: in vivo, male Wistar strain rats
- ASSAY SETUP: 1% in hyperlipidemic diet, 2 weeks
ENDPOINT: LPO in serum (nmol/mL)

| COMPOUND | ENDPOINT | SCALE UNIT | ENDPOINT VALUE |
| --- | --- | --- | --- |
| CC(C)=CCCC(C)C1CCC2(C)C3CCC4C(C)(C)C(OC(=O)C=Cc5cccc(N)c5)CCC45CC35CCC12C (stereo not drawn) [Example 108] | LPO in serum | nmol/mL | 2.20 |
| CC(C)=C(C)CCC(C)C1CCC2(C)C3CCC4C(C)(C)C(OC(=O)c5ccc(O)cc5)CCC45CC35CCC12C (stereo not drawn) [Example 58, cyclobranyl-p-hydroxybenzoate] | LPO in serum | nmol/mL | 1.82 |
| COc1ccccc1C(=O)OC1CCC23CC24CCC2(C)C(C(C)CCC=C(C)C)CCC2(C)C4CCC3C1(C)C (stereo not drawn) [Example 13, cycloartenyl-o-methoxybenzoate] | LPO in serum | nmol/mL | 1.94 |

* * *

- Tested on: serum lipids and serum lipid hydroperoxide
- EXPERIMENT: Pharmacological test method A for anti-hyperlipidemic activity (serum lipids, 2 weeks feeding)
- Type: in vivo, male Wistar strain rats
- ASSAY SETUP: versus control group

| COMPOUND | TARGET | TC % of diff. [%] |
| --- | --- | --- |
| COc1ccccc1C(=O)OC1CCC23CC24CCC2(C)C(C(C)CCC=C(C)C)CCC2(C)C4CCC3C1(C)C (stereo not drawn) [Example 13, cycloartenyl-o-methoxybenzoate] | serum lipids and serum lipid hydroperoxide | -13.3 |
| CC(C)=CCCC(C)C1CCC2(C)C3CCC4C(C)(C)C(OC(=O)C=Cc5ccc(N)cc5)CCC45CC35CCC12C (stereo not drawn) | serum lipids and serum lipid hydroperoxide | -37.2 |
| CC(C)=C(C)CCC(C)C1CCC2(C)C3CCC4C(C)(C)C(OC(=O)c5ccc(O)c(O)c5)CCC45CC35CCC12C (stereo not drawn) [Example 39, cyclobranyl-3,4-dihydroxybenzoate] | serum lipids and serum lipid hydroperoxide | -18.5 |
| CC(C)=CCCC(C)C1CCC2(C)C3CCC4C(C)(C)C(OC(=O)c5ccccc5O)CCC45CC35CCC12C (stereo not drawn) [Example 8, cycloartenyl-o-hydroxybenzoate] | serum lipids and serum lipid hydroperoxide | -18.1 |
| COc1ccc(C(=O)OC2CCC34CC35CCC3(C)C(C(C)CCC=C(C)C)CCC3(C)C5CCC4C2(C)C)cc1 (stereo not drawn) [Example 14, cycloartenyl-p-methoxybenzoate] | serum lipids and serum lipid hydroperoxide | -12.5 |
| CC(C)=CCCC(C)C1CCC2(C)C3CCC4C(C)(C)C(OC(=O)c5ccc(O)cc5)CCC45CC35CCC12C (stereo not drawn) [Example 10, cycloartenyl-p-hydroxybenzoate] | serum lipids and serum lipid hydroperoxide | -12.1 |
| CC(C)=CCCC(C)C1CCC2(C)C3CCC4C(C)(C)C(OC(=O)c5ccc(O)c(O)c5)CCC45CC35CCC12C (stereo not drawn) [Example 27, cycloartenyl-3,4-dihydroxybenzoate] | serum lipids and serum lipid hydroperoxide | -14.3 |
| C=C(CCC(C)C1CCC2(C)C3CCC4C(C)(C)C(OC(=O)CCCCCCC/C=C\C/C=C\CCCCC)CCC45CC35CCC12C)C(C)C (stereo not drawn) | serum lipids and serum lipid hydroperoxide | -16.2 |
| CC(C)=CCCC(C)C1CCC2(C)C3CCC4C(C)(C)C(OC(=O)c5cccnc5)CCC45CC35CCC12C (stereo not drawn) [Example 24, cycloartenyl nicotinate] | serum lipids and serum lipid hydroperoxide | -14.5 |
| C=C(CCC(C)C1CCC2(C)C3CCC4C(C)(C)C(OC(=O)c5ccc(O)c(OC)c5)CCC45CC35CCC12C)C(C)C (stereo not drawn) | serum lipids and serum lipid hydroperoxide | -14.0 |
| CC(C)=C(C)CCC(C)C1CCC2(C)C3CCC4C(C)(C)C(OC(=O)/C=C/c5ccc(O)c(O)c5)CCC45CC35CCC12C (stereo not drawn) [Example 32, cyclobranyl-3,4-dihydroxycinnamate] | serum lipids and serum lipid hydroperoxide | -12.3 |
| CC(=O)Nc1ccc(C(=O)OC2CCC34CC35CCC3(C)C(C(C)CCC=C(C)C)CCC3(C)C5CCC4C2(C)C)cc1 (stereo not drawn) [Example 20, cycloartenyl-p-acetamidobenzoate] | serum lipids and serum lipid hydroperoxide | -12.2 |

* * *

- System: serum lipids and serum lipid hydroperoxide
- EXPERIMENT: Pharmacological test method B for anti-hyperlipidemic activity (serum lipids, 4 weeks feeding)
- Type: in vivo, male Wistar strain rats
- ASSAY SETUP: 1% in hyperlipidemic diet, 4 weeks
# TG in serum values compiled below
ENDPOINT: TG in serum (mg/dL)

| COMPOUND | ENDPOINT VALUE |
| --- | --- |
| C=C(CCC(C)C1CCC2(C)C3CCC4C(C)(C)C(OC(=O)C(C)=Cc5ccc(N)c(OC)c5)CCC45CC35CCC12C)C(C)C (stereo not drawn) [Example 191] | 60.4 |
| COc1cc(C=C(C)C(=O)OC2CCC34CC35CCC3(C)C(C(C)CCC(C)=C(C)C)CCC3(C)C5CCC4C2(C)C)ccc1O (stereo not drawn) [Example 116] | 54.0 |
| C=C(CCC(C)C1CCC2(C)C3CCC4C(C)(C)C(OC(=O)C(C)=Cc5cc(N)ccc5OCCC)CCC45CC35CCC12C)C(C)C (stereo not drawn) [Example 197] | 61.2 |

* * *

- Tested on: serum lipids and serum lipid hydroperoxide
- EXPERIMENT: Pharmacological test method B for anti-hyperlipidemic activity (serum lipids, 4 weeks feeding)
- Assay type: in vivo, male Wistar strain rats
- ASSAY SETUP: Rattus norvegicus, po, 672 h, versus control group, read-out: PL % of diff.

| MOLECULE | change in vivo at 1 % in diet |
| --- | --- |
| CCC(=O)Oc1ccc(C=C(C)C(=O)OC2CCC34CC35CCC3(C)C(C(C)CCC=C(C)C)CCC3(C)C5CCC4C2(C)C)cc1OC (centres unmarked) [Example 113] | -29.7% |
| C=C(CCC(C)C1CCC2(C)C3CCC4C(C)(C)C(OC(=O)C(C)=Cc5ccc(O)c(OC)c5)CCC45CC35CCC12C)C(C)C (centres unmarked) [Example 118] | -29.8% |
| CCOc1cc(C=C(C)C(=O)OC2CCC34CC35CCC3(C)C(C(C)CCC(C)=C(C)C)CCC3(C)C5CCC4C2(C)C)ccc1O (centres unmarked) [Example 140] | -30% |
| COc1cc(C=C(C)C(=O)OC2CCC34CC35CCC3(C)C(C(C)CCC(C)=C(C)C)CCC3(C)C5CCC4C2(C)C)ccc1O (centres unmarked) [Example 116] | -30.5% |
| C=C(CCC(C)C1CCC2(C)C3CCC4C(C)(C)C(OC(=O)C(C)=Cc5ccc(OC(=O)CC)c(OC)c5)CCC45CC35CCC12C)C(C)C (centres unmarked) [Example 117] | -28.3% |
| COc1cc(C=CC(=O)OC2CCC34CC35CCC3(C)C(C(C)CCC(C)=C(C)C)CCC3(C)C5CCC4C2(C)C)ccc1N (centres unmarked) [Example 178] | -28.2% |
| CCC(=Cc1ccc(O)cc1)C(=O)OC1CCC23CC24CCC2(C)C(C(C)CCC=C(C)C)CCC2(C)C4CCC3C1(C)C (centres unmarked) [Example 130] | -23.5% |
| C=C(CCC(C)C1CCC2(C)C3CCC4C(C)(C)C(OC(=O)C(C)=Cc5cccc(N)c5)CCC45CC35CCC12C)C(C)C (centres unmarked) [Example 213] | -34.8% |

* * *

- Tested on: serum lipids and serum lipid hydroperoxide
- EXPERIMENT: Pharmacological test method B for anti-hyperlipidemic activity (serum lipids, 4 weeks feeding)
- Format: in vivo, male Wistar strain rats
- Design: unit not given here
- ASSAY SETUP: versus control group
ENDPOINT: AI Diff.

| COMPOUND | ENDPOINT | ENDPOINT VALUE |
| --- | --- | --- |
| CCC(=Cc1ccc(O)c(OC)c1)C(=O)OC1CCC23CC24CCC2(C)C(C(C)CCC=C(C)C)CCC2(C)C4CCC3C1(C)C (stereo not drawn) | AI Diff. | -14.5 |
| COc1ccc([N+](=O)[O-])cc1C(=O)OC1CCC23CC24CCC2(C)C(C(C)CCC=C(C)C)CCC2(C)C4CCC3C1(C)C (stereo not drawn) | AI Diff. | -18.83 |
| C=C(CCC(C)C1CCC2(C)C3CCC4C(C)(C)C(OC(=O)C(C)=Cc5ccc(O)c(OC)c5)CCC45CC35CCC12C)C(C)C (stereo not drawn) | AI Diff. | -19.82 |
| CCOc1cc(C=C(C)C(=O)OC2CCC34CC35CCC3(C)C(C(C)CCC(C)=C(C)C)CCC3(C)C5CCC4C2(C)C)ccc1O (stereo not drawn) | AI Diff. | -19.16 |
| C=C(CCC(C)C1CCC2(C)C3CCC4C(C)(C)C(OC(=O)C(C)=Cc5ccc(OC(=O)CC)c(OC)c5)CCC45CC35CCC12C)C(C)C (stereo not drawn) | AI Diff. | -16.17 |
| CCC(=Cc1ccc(O)cc1)C(=O)OC1CCC23CC24CCC2(C)C(C(C)CCC=C(C)C)CCC2(C)C4CCC3C1(C)C (stereo not drawn) | AI Diff. | -13.17 |
